Target: Cytochrome P450 1A2 (Homo sapiens) (UniProt P05177)
Sequence (P05177 whole entry, looked up): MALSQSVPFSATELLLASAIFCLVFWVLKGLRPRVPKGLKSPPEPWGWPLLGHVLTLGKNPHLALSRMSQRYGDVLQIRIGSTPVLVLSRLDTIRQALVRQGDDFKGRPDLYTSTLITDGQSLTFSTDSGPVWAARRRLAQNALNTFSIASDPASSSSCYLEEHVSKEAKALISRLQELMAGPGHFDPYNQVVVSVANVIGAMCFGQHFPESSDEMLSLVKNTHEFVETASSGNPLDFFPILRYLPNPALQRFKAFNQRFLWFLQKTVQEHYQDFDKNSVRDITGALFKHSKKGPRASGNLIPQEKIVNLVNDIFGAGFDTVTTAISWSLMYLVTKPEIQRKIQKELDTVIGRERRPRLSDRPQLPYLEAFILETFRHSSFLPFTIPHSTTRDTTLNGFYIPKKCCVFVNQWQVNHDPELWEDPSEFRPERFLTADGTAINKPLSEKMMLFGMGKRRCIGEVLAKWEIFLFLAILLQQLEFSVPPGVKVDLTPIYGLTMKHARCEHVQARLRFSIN
Assay: Cytochrome panel assay with activity outcomes; also: % is scaled to controls: 0 for no effect and ±100 for the full control effect
Conditions: recombinant CYP, pro-luciferin dealkylation, luminescence, p450-cyp1a2; series mostly up to 57.1 µM
Procedure: The P450 gene superfamily is involved in the metabolism and clearance of xenobiotics. This assay used various human CYP P450 isozymes to measure the dealkylation of various pro-luciferin substrates to luciferin. The luciferin is then measured by luminescence after the addition of a luciferase detection reagent. […] Inhibitors and some substrates limit the production of luciferin, and decrease measured luminescence. […] 8, Detection, 1 sec, ViewLux luminescent read […]
About 5,700 (36%) of roughly 16,000 compounds were called active. Not shown: some 24% with an inconclusive outcome. Some of the results follow.
List of activity, negative = inhibition values.

activity, negative = inhibition reading for `CC(=O)O[C@H]1CC[C@@]2(C)C(=CC[C@@H]3[C@@H]4CC[C@H](c5cc(C(F)(F)F)n(C(C)=O)n5)[C@]4(C)CC[C@@H]32)C1` : -13.7% [at 11.4 µM] (inactive)

Entry `O=C(O)c1ccccc1C1c2ccccc2Oc2ccccc21` , activity, negative = inhibition reported as -20.4% [at 2.29 µM] (inactive)

The reported activity, negative = inhibition of the compound `O=C(O)CNCCc1ccccc1` was -1.5% [at 11.4 µM] (inactive)

activity, negative = inhibition reading for `O=C(O)c1cc(=O)[nH]c(SCc2ccccc2)n1` : -12% [at 11.4 µM] (inactive)

The recorded activity, negative = inhibition for entry `Fc1cccc(F)c1C(Nc1nncs1)Nc1nncs1` equals 12.3% [at 2.29 µM] (inactive)

Noted for `N[C@@](CCc1ccccc1)(C(=O)O)c1ccccc1` : its activity, negative = inhibition reads -9.59% [at 11.4 µM] (inactive)

Data point: `Cc1cc2ccccc2c[n+]1CC(O)C[n+]1cc2ccccc2cc1C` ; activity, negative = inhibition = -17.4% [at 11.4 µM] (inactive)

Please fill in: activity, negative = inhibition reported for `COc1ccc(OC[C@@H](CO)OC)cc1` = -13.3% [at 11.4 µM] (inactive)
